The measurements presented in this section are drawn from patent US8835476B2.

Tested on: B. cepacia ATCC 25416
Assay: Broth microdilution MIC, ATCC strains
Format: cell-based
Conditions: Burkholderia cepacia, ATCC25416; B. cepacia ATCC 25416; read-out: MIC (growth inhibition, microdilution method)
property label: MIC

Query: For the compound Cn1nnnc1-c1cc(-c2ccc(F)cc2)sc1-c1ccc(F)cc1 [DNM-133] , what MIC is on record?
Reply: > 16 µg/mL

Query: For the compound Cn1nnc(-c2cc(-c3ccc(F)cc3)sc2-c2ccc(F)cc2)n1 [DNM-132] , what MIC is on record?
Reply: > 16 µg/mL

Query: For the compound Fc1ccc(-c2cc(-c3nnn[nH]3)c(-c3ccc(F)cc3)s2)cc1 [DNM-131] , what MIC is on record?
Reply: > 32 µg/mL

Further cases:
Query: For the compound Cn1nnnc1-c1cc(-c2ccc(F)cc2)sc1C(=O)O [DNM-143] , what MIC is on record?
Reply: > 8 µg/mL
